- TGT: T1, human GIP receptor (human, UniProt P48546 22-466)
- T1 sequence (looked up): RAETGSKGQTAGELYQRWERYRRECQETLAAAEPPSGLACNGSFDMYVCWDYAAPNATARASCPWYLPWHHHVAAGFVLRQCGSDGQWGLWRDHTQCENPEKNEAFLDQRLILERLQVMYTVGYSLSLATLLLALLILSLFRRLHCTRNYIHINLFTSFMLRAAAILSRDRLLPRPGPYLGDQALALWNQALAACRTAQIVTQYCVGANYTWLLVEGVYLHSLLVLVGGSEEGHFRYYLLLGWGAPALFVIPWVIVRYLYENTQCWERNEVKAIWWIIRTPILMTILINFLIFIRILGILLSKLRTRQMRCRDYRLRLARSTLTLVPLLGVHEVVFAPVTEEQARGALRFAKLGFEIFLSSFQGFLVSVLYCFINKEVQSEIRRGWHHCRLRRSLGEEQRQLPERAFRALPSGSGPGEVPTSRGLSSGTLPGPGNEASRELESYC
- ASSAY_PROTOCOL: cell-based or functional assay
Numbered stars: 1 amine (or outer) side, 2 acyl side, 3 side chain; on linkers, the order of the positions; unused ones are H or OH. Square brackets hold non-standard residues; d marks the D form. Side chains are listed from the residue outwards. * marks the point of attachment. C20 diacid = O=C(O)CCCCCCCCCCCCCCCCCCC(=O)*; C18 diacid = O=C(O)CCCCCCCCCCCCCCCCC(=O)*; γGlu = O=C(O)[C@H](CCC(=O)[*:2])N[*:1]; Chem. 28 = not defined here; AEEA = NCCOCCOCC(=O)O; Aib = CC(C)(N)C(=O)O
QUANTITY_MEASURED: hGIPR Potency, 1% HSA, EC50 [pM] (pM)
Please give a number only; it is taken to be in pM.

In the examples that follow, each entry is paired with its recorded hGIPR Potency, 1% HSA, EC50 [pM].
BINDER | QUANTITY_MEASURED | RESULT_UNITS | RECORDED_VALUE
Compound 16 (peptide) peptide: H[Aib]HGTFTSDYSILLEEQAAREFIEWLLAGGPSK([AEEA-AEEA-γGlu-C20 diacid])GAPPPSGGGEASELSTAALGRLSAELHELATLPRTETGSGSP-NH2 | hGIPR Potency, 1% HSA, EC50 [pM] | pM | 485
Compound 71 (peptide) peptide: H[Aib]HGTFTSDYSILLEEQAAREFIEWLLAGGPSRGAPPPSGGGEASHLSTQTQGRLSAELHK([AEEA-AEEA-γGlu-C18 diacid])LATLPRTETGSGSP-NH2 | hGIPR Potency, 1% HSA, EC50 [pM] | pM | 9.28
Compound 107 (reading uncertain) peptide: H[Aib]HGTFTSDYSILLEEQAAREFIEWLLAGGPSSGALQAPGQAPGASHLSTAQTARLSAELHRLATLPK(Chem. 28)TETGSGSP-NH2 | hGIPR Potency, 1% HSA, EC50 [pM] | pM | 8.76
Compound 110 (not fully specified) peptide: Y[Aib]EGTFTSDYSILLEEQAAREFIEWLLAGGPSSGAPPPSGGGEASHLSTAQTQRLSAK([AEEA-AEEA-γGlu-C20 diacid])LHRLATLPRTETGSGSP-NH2 | hGIPR Potency, 1% HSA, EC50 [pM] | pM | 29.3
Compound 72 (peptide) peptide: Y[Aib]EGTFTSDYSILLEEQAAREFIEWLLAGGPSRGAPPPSGGGEASHLSTQTQGRLSAELHK([AEEA-AEEA-γGlu-C18 diacid])LATLPRTETGSGSP-NH2 | hGIPR Potency, 1% HSA, EC50 [pM] | pM | 9.79
Compound 51 (reading uncertain) peptide: H[Aib]HGTFTSDYSILLEEQAAREFIEWLLAGGPSSGALAQTLAQTLASHLSTAQTQRLSAELHK(Chem. 28)LATLPRTETGSGSP-NH2 | hGIPR Potency, 1% HSA, EC50 [pM] | pM | 61.9

Which value of hGIPR Potency, 1% HSA, EC50 [pM] has been reported for Compound 65 (peptide) peptide: H[Aib]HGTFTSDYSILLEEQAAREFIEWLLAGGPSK([AEEA-AEEA-γGlu-C18 diacid])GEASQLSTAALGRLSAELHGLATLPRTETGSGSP-NH2 in the records?
118

What value of hGIPR Potency, 1% HSA, EC50 [pM] has been reported for the following binder? Compound 48 (reading uncertain) peptide: Y[Aib]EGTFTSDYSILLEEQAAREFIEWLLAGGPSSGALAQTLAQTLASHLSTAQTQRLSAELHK(Chem. 28)LATLPRTETGSGSP-NH2
54
